run_description: Cytotoxicity against human hepatoma cells after 3 days by MTS assay
Assay type: cell-based
observable: CC50 at 72 h

Check out these entries, answers already filled in.
compound | CC50 at 72 h
CCOCCNc1nc(C)c(-c2nc3c(C)nccc3s2)c(N[C@@H]2C[C@H](C(O)(COC)COC)[C@@H](O)[C@H]2O)n1 | 6 µM
Cc1nc(NCC2CCCCO2)nc(N[C@@H]2C[C@H](C(C)(C)O)[C@@H](O)[C@H]2O)c1-c1nc2c(C)nccc2s1 (stereo partly specified) | > 25 µM
Cc1nc(NCCN(C)C)nc(N[C@@H]2C[C@H](C(C)(C)O)[C@@H](O)[C@H]2O)c1-c1nc2c(C)nccc2s1 | 12 µM
Cc1nc(NCC(F)(F)F)nc(N[C@@H]2C[C@H](C(C)(C)O)[C@@H](O)[C@H]2O)c1-c1nc2c(C)nccc2s1 | > 12 µM
Cc1nc(NCC2CC2)nc(N[C@@H]2C[C@H](C(C)(C)O)[C@@H](O)[C@H]2O)c1-c1nc2c(C)nccc2s1 | > 25 µM

Exercise: Complete the entry with CC50 at 72 h for CO[C@H](C)CNc1nc(C)c(-c2nc3c(C)nccc3s2)c(N[C@@H]2C[C@H](C(C)(C)O)[C@@H](O)[C@H]2O)n1
Key: > 25 µM

Exercise: Complete the entry with CC50 at 72 h for Cc1nc(NC2CC2)nc(N[C@@H]2C[C@H](C(C)(C)O)[C@@H](O)[C@H]2O)c1-c1nc2c(C)nccc2s1
Key: > 6 µM

Exercise: Complete the entry with CC50 at 72 h for COCC1(CNc2nc(C)c(-c3nc4c(C)nccc4s3)c(N[C@@H]3C[C@H](C(C)(C)O)[C@@H](O)[C@H]3O)n2)CC1
Key: > 25 µM

---

Documented CC50 at 72 h across a set of compounds
run_description: Cytotoxicity against human hepatoma cells after 3 days by MTS assay
Type: cell-based
Write it as a number; the unit µM goes unstated.

smiles_text | CC50 at 72 h [µM]
Cc1nc(N)nc(N[C@@H]2C[C@H](C(C)(C)O)[C@@H](O)[C@H]2O)c1-c1nc2c(C)nccc2s1 | 6

Now consider a different compound.
Exercise: Complete the entry with CC50 at 72 h for Cc1nc(NCC2CC2)nc(N[C@@H]2C[C@H]([C@H](C)O)[C@@H](O)[C@H]2O)c1-c1nc2cnccc2s1.Cl
Key: 13

---

run_description: Cytotoxicity against human hepatoma cells assessed as effect on cellular GAPDH RNA level
Type: cell-based
Documented CC50 across a set of compounds

Check out these entries, answers already filled in.
smiles_text | CC50
Cc1nc(NCc2c(F)cc(F)cc2F)nc(N[C@@H]2C[C@H](C(C)(C)O)[C@@H](O)[C@H]2O)c1-c1nc2c(C)nccc2s1 | > 25 µM
COCC(O)(COC)[C@H]1C[C@@H](Nc2nc(NCC3CC3)nc(C)c2-c2nc3c(C)nccc3s2)[C@H](O)[C@@H]1O | > 6 µM
CCOCCNc1nc(C)c(-c2nc3c(C)nccc3s2)c(N[C@@H]2C[C@H](C(O)(COC)COC)[C@@H](O)[C@H]2O)n1 | > 12 µM
Cc1nc(NC2CC2)nc(N[C@@H]2C[C@H](C(C)(C)O)[C@@H](O)[C@H]2O)c1-c1nc2c(C)nccc2s1 | > 6 µM

Exercise: Complete the entry with CC50 for CO[C@H](C)CNc1nc(C)c(-c2nc3c(C)nccc3s2)c(N[C@@H]2C[C@H](C(C)(C)O)[C@@H](O)[C@H]2O)n1
Key: > 25 µM

Exercise: Complete the entry with CC50 for Cc1nc(NCC(F)(F)F)nc(N[C@@H]2C[C@H](C(C)(C)O)[C@@H](O)[C@H]2O)c1-c1nc2c(C)nccc2s1
Key: 20 µM

Exercise: Complete the entry with CC50 for Cc1nc(NCC2CC2)nc(N[C@@H]2C[C@H](CO)[C@@H](O)[C@H]2O)c1-c1nc2cnccc2s1
Key: 3 µM

Exercise: Complete the entry with CC50 for CCC(O)(CC)[C@H]1C[C@@H](Nc2nc(NCCOC)nc(C)c2-c2nc3c(C)nccc3s2)[C@H](O)[C@@H]1O
Key: > 25 µM

Exercise: Complete the entry with CC50 for Cc1nc(NCC2CC2)nc(N[C@@H]2C[C@H](C3(O)CC3)[C@@H](O)[C@H]2O)c1-c1nc2c(C)nccc2s1
Key: > 25 µM

Exercise: Complete the entry with CC50 for Cc1nc(NCCN(C)C)nc(N[C@@H]2C[C@H](C(C)(C)O)[C@@H](O)[C@H]2O)c1-c1nc2c(C)nccc2s1
Key: 7 µM

Exercise: Complete the entry with CC50 for Cc1nc(NCC2CC2)nc(N[C@@H]2C[C@H](C(C)(C)O)[C@@H](O)[C@H]2O)c1-c1nc2c(C)nccc2s1
Key: > 25 µM

Exercise: Complete the entry with CC50 for COCCNc1nc(C)c(-c2nc3cnccc3s2)c(N[C@@H]2C[C@H](C(C)(C)O)[C@@H](O)[C@H]2O)n1
Key: > 25 µM

Exercise: Complete the entry with CC50 for Cc1nc(N[C@H](C)c2ccc(OC(F)(F)F)cc2)nc(N[C@@H]2C[C@H](C(C)(C)O)[C@@H](O)[C@H]2O)c1-c1nc2c(C)nccc2s1
Key: > 25 µM

Exercise: Complete the entry with CC50 for COC[C@@H](C)Nc1nc(C)c(-c2nc3c(C)nccc3s2)c(N[C@@H]2C[C@H](C(C)(C)O)[C@@H](O)[C@H]2O)n1
Key: > 3 µM

Exercise: Complete the entry with CC50 for Cc1nc(NCC2CC2)nc(N[C@@H]2C[C@H](C(C)(C)O)[C@@H](O)[C@H]2O)c1-c1nc2cnccc2s1.Cl
Key: > 12 µM

---

Documented bioavailability across a set of compounds
run_description: Oral bioavailability in dog at 3 mg/kg
Type: ADME, organism-based, Canis lupus familiaris
assay_conditions: in vivo
Write it as a number; the unit % goes unstated.

Check out these entries, answers already filled in.
smiles_text | val
COCCNc1nc(C)c(-c2nc3c(C)nccc3s2)c(N[C@@H]2C[C@H](C(C)(C)O)[C@@H](O)[C@H]2O)n1 | 18
Cc1nc(NCC2CC2)nc(N[C@@H]2C[C@H](C(C)(C)O)[C@@H](O)[C@H]2O)c1-c1nc2c(C)nccc2s1 | 66
CO[C@H](C)CNc1nc(C)c(-c2nc3c(C)nccc3s2)c(N[C@@H]2C[C@H](C(C)(C)O)[C@@H](O)[C@H]2O)n1 | 56
Cc1nc(N[C@H](C)C2CC2)nc(N[C@@H]2C[C@H](C(C)(C)O)[C@@H](O)[C@H]2O)c1-c1nc2c(C)nccc2s1 | 32

Now consider a different compound.
Exercise: Complete the entry with bioavailability for COC[C@@H](C)Nc1nc(C)c(-c2nc3c(C)nccc3s2)c(N[C@@H]2C[C@H](C(C)(C)O)[C@@H](O)[C@H]2O)n1
Key: 50

---

run_description: Oral bioavailability in rat at 10 mg/kg
Format: ADME, organism-based
assay_conditions: in vivo
observable: bioavailability (%)
Write it as a number; the unit % goes unstated.

Check out these entries, answers already filled in.
smiles_text | bioavailability (%)
Cc1nc(NCC2CC2)nc(N[C@@H]2C[C@H](C(C)(C)O)[C@@H](O)[C@H]2O)c1-c1nc2c(C)nccc2s1 | 39
COC[C@@H](C)Nc1nc(C)c(-c2nc3c(C)nccc3s2)c(N[C@@H]2C[C@H](C(C)(C)O)[C@@H](O)[C@H]2O)n1 | 81
Cc1nc(N[C@H](C)C2CC2)nc(N[C@@H]2C[C@H](C(C)(C)O)[C@@H](O)[C@H]2O)c1-c1nc2c(C)nccc2s1 | 54
COCCNc1nc(C)c(-c2nc3c(C)nccc3s2)c(N[C@@H]2C[C@H](C(C)(C)O)[C@@H](O)[C@H]2O)n1 | 49

Now consider a different compound.
Exercise: Complete the entry with bioavailability for CO[C@H](C)CNc1nc(C)c(-c2nc3c(C)nccc3s2)c(N[C@@H]2C[C@H](C(C)(C)O)[C@@H](O)[C@H]2O)n1
Key: 58

---

Documented concentration at 6 h across a set of molecules
run_description: Drug uptake in rat liver at 10 mg/kg, po after 6 hrs
Format: ADME, organism-based
Parameters: dose 10 mg/kg, route oral
assay_conditions: read-out: Drug uptake
Write it as a number; the unit ng/g goes unstated.

molecule | observable | measurement_unit | val
COC[C@@H](C)Nc1nc(C)c(-c2nc3c(C)nccc3s2)c(N[C@@H]2C[C@H](C(C)(C)O)[C@@H](O)[C@H]2O)n1 | concentration at 6 h | ng/g | 900

Exercise: Complete the entry with concentration at 6 h for Cc1nc(NCC2CCCCO2)nc(N[C@@H]2C[C@H](C(C)(C)O)[C@@H](O)[C@H]2O)c1-c1nc2c(C)nccc2s1 (stereo partly specified)
Key: 1800

Exercise: Complete the entry with concentration at 6 h for Cc1nc(N[C@H](C)C2CC2)nc(N[C@@H]2C[C@H](C(C)(C)O)[C@@H](O)[C@H]2O)c1-c1nc2c(C)nccc2s1
Key: 13700

Exercise: Complete the entry with concentration at 6 h for COCCNc1nc(C)c(-c2nc3c(C)nccc3s2)c(N[C@@H]2C[C@H](C(C)(C)O)[C@@H](O)[C@H]2O)n1
Key: 1900

Exercise: Complete the entry with concentration at 6 h for CO[C@H](C)CNc1nc(C)c(-c2nc3c(C)nccc3s2)c(N[C@@H]2C[C@H](C(C)(C)O)[C@@H](O)[C@H]2O)n1
Key: 1300

Exercise: Complete the entry with concentration at 6 h for Cc1nc(NCC2CC2)nc(N[C@@H]2C[C@H](C(C)(C)O)[C@@H](O)[C@H]2O)c1-c1nc2c(C)nccc2s1
Key: 9500

Origin of measurements: ChEMBL document CHEMBL2163315
